src = the supplement of paper PMC7877785

METHOD: self-splicing fitness, log relative to wild type (ln ratio); higher = more splicing; Tetrahymena group I intron in knt gene, E. coli kanamycin selection, DiMSum; sequences stand for … in CUCUCU…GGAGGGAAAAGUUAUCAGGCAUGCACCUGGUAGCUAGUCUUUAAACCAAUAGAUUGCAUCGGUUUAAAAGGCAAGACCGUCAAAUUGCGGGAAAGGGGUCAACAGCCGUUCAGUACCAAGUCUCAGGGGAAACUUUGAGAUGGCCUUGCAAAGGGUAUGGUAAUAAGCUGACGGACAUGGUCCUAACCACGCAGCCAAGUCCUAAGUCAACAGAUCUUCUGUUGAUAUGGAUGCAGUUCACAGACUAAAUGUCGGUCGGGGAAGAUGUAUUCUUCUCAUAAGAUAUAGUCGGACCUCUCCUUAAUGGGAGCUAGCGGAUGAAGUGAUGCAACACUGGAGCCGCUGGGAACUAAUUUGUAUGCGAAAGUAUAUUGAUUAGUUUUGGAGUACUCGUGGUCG;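 also: selection with 25 µg/mL kanamycin versus none on LB agar overnight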
CONDITION_CONTEXT: 30 °C
Give self-splicing fitness (ln) for every item shown.
Just the number, please, no unit after it.

# lookup: self-splicing fitness (ln) of UAGUAGCAAUAUUACGUAAU -2.43

# lookup: self-splicing fitness (ln) of CUUGAGCAAUAUUACGCGAC -3.55

# lookup: self-splicing fitness (ln) of CAUCAGCAAUAUUACGUCGA -3

# lookup: self-splicing fitness (ln) of CAAAAGCAAUAUUACGAUGG -0.431

# lookup: self-splicing fitness (ln) of CGGUAGCAAUAUUACGAUCA -0.493

# lookup: self-splicing fitness (ln) of UCGAAGCAAUAUUACGUGGA -2.29

# lookup: self-splicing fitness (ln) of GCCAAGCAAUAUUACGAGCC -3.51

# lookup: self-splicing fitness (ln) of GCGCAGCAAUAUUACGUACG -3.47

# lookup: self-splicing fitness (ln) of ACUCAGCAAUAUUACGCUUG -1.83

# lookup: self-splicing fitness (ln) of GCGCAGCAAUAUUACGCCCG -1.59

# lookup: self-splicing fitness (ln) of GCUUAGCAAUAUUACGUGUG -1.91

# lookup: self-splicing fitness (ln) of AGCUAGCAAUAUUACGACUA -0.935

# lookup: self-splicing fitness (ln) of GGAAAGCAAUAUUACGGCAA -0.443

# lookup: self-splicing fitness (ln) of ACGUAGCAAUAUUACGACGG -0.92

# lookup: self-splicing fitness (ln) of UUUCAGCAAUAUUACGUACG -0.905

# lookup: self-splicing fitness (ln) of GCACAGCAAUAUUACGCAUA -0.997

====

METHOD: self-splicing fitness, log relative to wild type (ln ratio); higher = more splicing; Tetrahymena group I intron in knt gene, E. coli kanamycin selection, DiMSum; sequences stand for … in CUCUCU…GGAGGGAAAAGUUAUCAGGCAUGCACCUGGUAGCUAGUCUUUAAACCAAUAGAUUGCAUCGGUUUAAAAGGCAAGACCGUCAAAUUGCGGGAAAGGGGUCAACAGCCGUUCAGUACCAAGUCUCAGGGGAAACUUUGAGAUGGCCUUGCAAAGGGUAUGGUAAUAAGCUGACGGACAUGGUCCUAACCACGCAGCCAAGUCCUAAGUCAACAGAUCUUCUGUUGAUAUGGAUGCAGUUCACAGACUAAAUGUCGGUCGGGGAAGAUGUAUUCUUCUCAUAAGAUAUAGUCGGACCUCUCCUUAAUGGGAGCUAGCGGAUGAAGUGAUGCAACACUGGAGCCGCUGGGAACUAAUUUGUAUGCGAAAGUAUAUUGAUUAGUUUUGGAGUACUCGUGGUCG
CONDITION_CONTEXT: 37 °C
Give self-splicing fitness (ln) for every item shown.
Just the number, please, no unit after it.

# lookup: self-splicing fitness (ln) of AGGCAGCAAUAUUACGACAG -1.54

# lookup: self-splicing fitness (ln) of AGGAAGCAAUAUUACGAAGA -1.61

# lookup: self-splicing fitness (ln) of CACUAGCAAUAUUACGGGGG -1.5

# lookup: self-splicing fitness (ln) of UUGCAGCAAUAUUACGGUUU -0.603

# lookup: self-splicing fitness (ln) of CUCUAGCAAUAUUACGGUUG -0.869

# lookup: self-splicing fitness (ln) of UAAAAGCAAUAUUACGAUAG -0.765

# lookup: self-splicing fitness (ln) of UGAGAGCAAUAUUACGAGCG -1.81

# lookup: self-splicing fitness (ln) of UCACAGCAAUAUUACGCAAG -1.11

# lookup: self-splicing fitness (ln) of UGGUAGCAAUAUUACGACUU 0.212

# lookup: self-splicing fitness (ln) of AACGAGCAAUAUUACGUCAG -2.97

# lookup: self-splicing fitness (ln) of CUGCAGCAAUAUUACGAGGU -3.53

# lookup: self-splicing fitness (ln) of GAGGAGCAAUAUUACGAUUG -1.93

# lookup: self-splicing fitness (ln) of GGCAAGCAAUAUUACGUGCA -0.635

# lookup: self-splicing fitness (ln) of UGUAAGCAAUAUUACGAGGU -2.63

# lookup: self-splicing fitness (ln) of GUUCAGCAAUAUUACGGAAU -2.46

# lookup: self-splicing fitness (ln) of UUUCAGCAAUAUUACGUGGC -2.94
